Listed here: items and their measured inhibition of growth at 50 µg/mL.
Test system: HeLa
assay: Cytotoxicity against human HeLa cells at 50 ug/ml after 24 hrs by BrdU incorporation assay relative to control
Type: functional
measurement-conditions: read-out: GI
Answer in %, number only, no unit symbol.

                      chemical_structure  system_under_test                      assay_metric  unit_label  numeric_value
0     CCOC(=O)Cc1nnc2n(c1=O)CCN2c1ccccc1               HeLa  inhibition of growth at 50 µg/mL           %             20
1  CCOC(=O)Cc1nnc2n(c1=O)CCN2c1ccc(C)cc1               HeLa  inhibition of growth at 50 µg/mL           %             20

Here's the next entry for you.
// inhibition of growth at 50 µg/mL value for CCOC(=O)Cc1nnc2n(c1=O)CCN2c1ccc(Cl)cc1 : 20

###

inhibition of growth at 50 µg/mL: recorded values
Tested on: T47D
assay: Cytotoxicity against human T47D cells at 50 ug/ml after 72 hrs by BrdU incorporation assay relative to control
Assay type: functional
measurement-conditions: read-out: GI
Kindly provide the numeric value in % only, without the unit symbol.

Per the record, CCOC(=O)Cc1nnc2n(c1=O)CCN2c1cccc(Cl)c1 has inhibition of growth at 50 µg/mL of 55

Measured inhibition of growth at 50 µg/mL of CCOC(=O)C/C(=N\N=C1/NCCN1c1ccc(Cl)c(Cl)c1)C(=O)OCC : 100

Reported inhibition of growth at 50 µg/mL ( CCOC(=O)C/C(=N\N=C1/NCCN1c1cccc(Cl)c1)C(=O)OCC ) = 90

The compound CCOC(=O)Cc1nnc2n(c1=O)CCN2c1ccc(C)cc1 showed inhibition of growth at 50 µg/mL equal to 80

inhibition of growth at 50 µg/mL for CCOC(=O)C/C(=N\N=C1/NCCN1c1ccc(C)cc1)C(=O)OCC is 80

Sure, the documented inhibition of growth at 50 µg/mL for CCOC(=O)Cc1nnc2n(c1=O)CCN2c1ccccc1OC is 40

response.value for CCOC(=O)Cc1nnc2n(c1=O)CCN2c1ccccc1 (field: inhibition of growth at 50 µg/mL) = 85
